- Tested on: Escherichia coli
- assayOverview: Binding affinity to Escherichia coli MRE600 23S rRNA assessed as protection of U2506 at 50 uM by footprinting assay relative to control in presence of CMCT
Activity of 3% or higher: yes. Under 3%: no.

Example results:
- smilesNotation: "C=C[C@]1(C)C[C@@H](OC(=O)Cn2cc(COCCn3cnc4c(N)ncnc43)nn2)[C@]2(C)[C@H](C)CC[C@]3(CCC(=O)[C@H]32)[C@@H](C)[C@@H]1O"
  cat: "yes"
- smilesNotation: "C=C[C@]1(C)C[C@@H](OC(=O)CSC(C)(C)CNC(=O)[C@H](N)C(C)C)[C@]2(C)[C@H](C)CC[C@]3(CCC(=O)[C@H]32)[C@@H](C)[C@@H]1O"
  cat: "no"
- smilesNotation: "C=C[C@]1(C)C[C@@H](OC(=O)CO)[C@]2(C)[C@H](C)CC[C@]3(CCC(=O)[C@@H]32)[C@@H](C)[C@@H]1O"
  cat: "yes"

Continue with the compound presented below.
Given C=C[C@]1(C)C[C@@H](OC(=O)Cn2cc(CN(CC)CC)nn2)[C@]2(C)[C@H](C)CC[C@]3(CCC(=O)[C@H]32)[C@@H](C)[C@@H]1O , state whether its Activity is at least 3%.
yes
